- measured_target: Adenosine receptor A3 (Homo sapiens)
- protocol_notes: Inhibition of human adenosine receptor A3 at 10 uM
Exercise: for every item that follows, state its recorded inhibition.

{"columns": ["structure_string", "result"],
 "data": [
  ["COc1ccc(-c2ccc3c(c2)Cc2sc(N)nc2-3)cc1OC", "45%"],
  ["Nc1nc2c(s1)Cc1cc(-c3ccc4c(c3)OCO4)ccc1-2", "22.5%"],
  ["CN(C)c1ccc(-c2ccc3c(c2)Cc2sc(N)nc2-3)cc1", "38.6%"]
]}

For this compound ( `COc1ccc(-c2ccc3c(c2)Cc2sc(N)nc2-3)cc1` ), measured inhibition is 37.6%

###

- measured_target: Adenosine receptor A1 (Homo sapiens) (UniProt P30542)
- Sequence (P30542 whole entry): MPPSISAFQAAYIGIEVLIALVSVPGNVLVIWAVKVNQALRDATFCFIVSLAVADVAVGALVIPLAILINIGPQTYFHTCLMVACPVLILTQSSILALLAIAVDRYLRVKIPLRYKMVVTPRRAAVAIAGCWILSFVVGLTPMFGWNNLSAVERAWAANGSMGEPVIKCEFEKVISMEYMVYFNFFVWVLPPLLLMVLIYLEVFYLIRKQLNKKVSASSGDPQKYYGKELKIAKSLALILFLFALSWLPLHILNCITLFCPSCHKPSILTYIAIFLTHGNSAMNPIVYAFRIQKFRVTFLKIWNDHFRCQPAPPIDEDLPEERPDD
- protocol_notes: Allosteric enhancer activity against adenosine A1 receptor
endpoint_label: EC50

Here are 2 molecules together with their reported answers.
{"columns": ["structure_string", "measured_target", "endpoint_label", "result"],
 "data": [
  ["Cc1ccccc1-c1ccc2c(c1)Cc1sc(N)nc1-2", "Adenosine receptor A1 (Homo sapiens) (UniProt P30542)", "EC50", "> 10 µM"],
  ["Nc1nc2c(s1)Cc1cc(-c3cccc(O)c3)ccc1-2", "Adenosine receptor A1 (Homo sapiens) (UniProt P30542)", "EC50", "> 10 µM"]
]}

Next up:
For this molecule ( `COc1cccc(-c2ccc3c(c2)Cc2sc(N)nc2-3)c1` ), measured EC50 is > 10 µM

###

- measured_target: Adenosine receptor A1 (Homo sapiens)
- protocol_notes: In vitro allosteric enhancer (AE) activity for adenosine A1 receptor at 50 uM
Labels assigned by Alloste ic enhan er (AE) range: band 1 = under 20%, band 2 = from 20% up to 50%, band 3 = 50% and over

{"columns": ["structure_string", "class"],
 "data": [
  ["Nc1nc2c(s1)Cc1cc(-c3ccsc3)ccc1-2", "band 3"]
]}

(Q) For the record `Nc1nc2c(s1)Cc1cc(-c3ccc(Cl)c(Cl)c3)ccc1-2` , report the class its Alloste ic enhan er (AE) corresponds to.
(A) band 2

###

- measured_target: Adenosine receptor A2a (Homo sapiens) (UniProt P29274)
- Sequence (P29274 whole entry): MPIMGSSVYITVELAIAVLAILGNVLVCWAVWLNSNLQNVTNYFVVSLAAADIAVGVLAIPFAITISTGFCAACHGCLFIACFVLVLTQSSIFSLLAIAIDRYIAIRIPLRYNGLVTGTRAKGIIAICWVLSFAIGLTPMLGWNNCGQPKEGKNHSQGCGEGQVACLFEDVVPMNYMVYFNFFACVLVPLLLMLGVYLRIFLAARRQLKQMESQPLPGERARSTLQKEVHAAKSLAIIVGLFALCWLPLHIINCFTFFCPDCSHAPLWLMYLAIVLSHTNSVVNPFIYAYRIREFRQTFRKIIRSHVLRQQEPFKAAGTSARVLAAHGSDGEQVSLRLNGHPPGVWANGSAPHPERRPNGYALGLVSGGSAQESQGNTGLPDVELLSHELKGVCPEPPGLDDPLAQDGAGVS
- protocol_notes: In vitro allosteric enhancer (AE) activity for adenosine A2A receptor at 50 uM
Exercise: for every item that follows, state its recorded Alloste ic enhan er (AE).
Could you kindly put the unit after your number?

Here are 3 compounds together with their reported answers.
{"columns": ["structure_string", "Alloste ic enhan er (AE)"],
 "data": [
  ["Nc1nc2c(s1)Cc1cc(-c3ccc(C(F)(F)F)cc3)ccc1-2", "0%"],
  ["COc1cc(-c2ccc3c(c2)Cc2sc(N)nc2-3)cc(OC)c1OC", "0%"],
  ["Nc1nc2c(s1)Cc1cc(-c3cc4ccccc4o3)ccc1-2", "0.8%"]
]}

Need Alloste ic enhan er (AE) for each of these compounds.
1. COc1cccc(-c2ccc3c(c2)Cc2sc(N)nc2-3)c1
2. Cc1cc(C)cc(-c2ccc3c(c2)Cc2sc(N)nc2-3)c1
3. Nc1nc2c(s1)Cc1cc(-c3ccccc3C(F)(F)F)ccc1-2

(A)
["0%", "0%", "0%"]

###

- measured_target: UniProt:P30542
- protocol_notes: In vitro allosteric enhancer (AE) activity for adenosine A1 receptor maximal score from curve fitting
Quick rule for you: Allosteric enhancer (AE) under 60% gets 1.0, anything else gets 0.0.

Below are worked cases with known answers.
{"columns": ["structure_string", "class"],
 "data": [
  ["Cc1ccc(C)c(-c2ccc3c(c2)Cc2sc(N)nc2-3)c1", 1.0],
  ["Nc1nc2c(s1)Cc1cc(-c3ccc4c(c3)OCO4)ccc1-2", 0.0],
  ["Nc1nc2c(s1)Cc1cc(-c3cccc4ccccc34)ccc1-2", 0.0],
  ["Nc1nc2c(s1)Cc1cc(-c3ccccc3[N+](=O)[O-])ccc1-2", 1.0],
  ["Nc1nc2c(s1)Cc1cc(-c3ccccc3C(F)(F)F)ccc1-2", 1.0],
  ["Nc1nc2c(s1)Cc1cc(-c3ccc(Cl)c(Cl)c3)ccc1-2", 1.0]
]}

Here is another molecule to look at.
(Q) Lab note: confirm whether the reported Allosteric enhancer (AE) for this molecule is below 60%, equality not counting. molecule: `COc1ccc(-c2ccc3c(c2)Cc2sc(N)nc2-3)cc1OC`
(A) 0.0

###

Exercise: for every item that follows, state its recorded EC50.
- measured_target: Adenosine receptor A1 (Homo sapiens) (UniProt P30542)
- protocol_notes: Allosteric enhancer activity against adenosine A1 receptor

Here are 5 compounds together with their reported answers.
{"columns": ["structure_string", "EC50"],
 "data": [
  ["Nc1nc2c(s1)Cc1cc(-c3ccc(O)cc3)ccc1-2", "> 10 µM"],
  ["Cc1cc(C)cc(-c2ccc3c(c2)Cc2sc(N)nc2-3)c1", "> 10 µM"],
  ["Nc1nc2c(s1)Cc1cc(-c3ccccc3)ccc1-2", "> 10 µM"],
  ["Nc1nc2c(s1)Cc1cc(-c3ccc(F)cc3)ccc1-2", "> 10 µM"],
  ["Nc1nc2c(s1)Cc1cc(-c3ccc(Cl)c(Cl)c3)ccc1-2", "> 10 µM"]
]}

Need EC50 for each of these compounds.
1. Nc1nc2c(s1)Cc1cc(-c3ccccc3[N+](=O)[O-])ccc1-2
2. Nc1nc2c(s1)Cc1cc(-c3ccccc3F)ccc1-2
3. COc1ccc(-c2ccc3c(c2)Cc2sc(N)nc2-3)c(OC)c1

(A)
1: 6.3 µM; 2: > 10 µM; 3: > 10 µM

###

- measured_target: Adenosine receptor A1 (Homo sapiens)
- protocol_notes: Inhibition of human adenosine receptor A1 at 10 uM
endpoint_label: inhibition (%)
Give bare numbers, in %.

Here are 2 compounds together with their reported answers.
{"columns": ["structure_string", "inhibition, %"],
 "data": [
  ["COc1ccc(-c2ccc3c(c2)Cc2sc(N)nc2-3)cc1OC", 18.8],
  ["COc1ccc(-c2ccc3c(c2)Cc2sc(N)nc2-3)cc1", 25.2]
]}

Need inhibition for each of these compounds.
1. CN(C)c1ccc(-c2ccc3c(c2)Cc2sc(N)nc2-3)cc1
2. Nc1nc2c(s1)Cc1cc(-c3ccc4c(c3)OCO4)ccc1-2

(A)
1: 23.1; 2: 10.5

###

- measured_target: Adenosine receptor A3 (Homo sapiens)
- Sequence (whole entry): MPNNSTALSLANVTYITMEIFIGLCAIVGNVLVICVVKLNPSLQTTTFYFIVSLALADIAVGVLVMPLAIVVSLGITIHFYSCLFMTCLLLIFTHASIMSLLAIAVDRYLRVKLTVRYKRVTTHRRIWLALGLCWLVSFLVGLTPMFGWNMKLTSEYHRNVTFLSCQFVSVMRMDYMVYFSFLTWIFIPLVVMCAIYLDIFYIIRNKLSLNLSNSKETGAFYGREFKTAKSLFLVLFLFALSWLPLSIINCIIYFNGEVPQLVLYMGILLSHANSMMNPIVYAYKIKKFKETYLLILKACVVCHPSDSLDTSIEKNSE
- protocol_notes: In vitro allosteric enhancer (AE) activity for adenosine A3 receptor at 50 uM
Quick rule for you: Alloste ic enhan er (AE) under 2% gets Met, anything else gets Not met.

{"columns": ["structure_string", "class"],
 "data": [
  ["Nc1nc2c(s1)Cc1cc(-c3cccs3)ccc1-2", "Met"],
  ["Nc1nc2c(s1)Cc1cc(-c3ccccc3)ccc1-2", "Met"],
  ["Cc1sc(N)c(C(=O)c2cccc(C(F)(F)F)c2)c1C", "Not met"]
]}

(Q) Lab note: confirm whether the reported Alloste ic enhan er (AE) for this compound is below 2%, equality not counting. compound: `Nc1nc2c(s1)Cc1cc(-c3ccccc3Cl)ccc1-2`
(A) Met

(Q) Lab note: confirm whether the reported Alloste ic enhan er (AE) for this compound is below 2%, equality not counting. compound: `Nc1nc2c(s1)Cc1cc(-c3cccc(Cl)c3)ccc1-2`
(A) Met

(Q) Lab note: confirm whether the reported Alloste ic enhan er (AE) for this compound is below 2%, equality not counting. compound: `Nc1nc2c(s1)Cc1cc(-c3ccc(F)cc3)ccc1-2`
(A) Not met

(Q) Lab note: confirm whether the reported Alloste ic enhan er (AE) for this compound is below 2%, equality not counting. compound: `Nc1nc2c(s1)Cc1cc(-c3ccc4c(c3)OCO4)ccc1-2`
(A) Not met

(Q) Lab note: confirm whether the reported Alloste ic enhan er (AE) for this compound is below 2%, equality not counting. compound: `Nc1nc2c(s1)Cc1cc(-c3cccc([N+](=O)[O-])c3)ccc1-2`
(A) Met

(Q) Lab note: confirm whether the reported Alloste ic enhan er (AE) for this compound is below 2%, equality not counting. compound: `Nc1nc2c(s1)Cc1cc(-c3ccccc3[N+](=O)[O-])ccc1-2`
(A) Met

(Q) Lab note: confirm whether the reported Alloste ic enhan er (AE) for this compound is below 2%, equality not counting. compound: `COc1ccc(-c2ccc3c(c2)Cc2sc(N)nc2-3)cc1`
(A) Not met

(Q) Lab note: confirm whether the reported Alloste ic enhan er (AE) for this compound is below 2%, equality not counting. compound: `Nc1nc2c(s1)Cc1cc(-c3ccsc3)ccc1-2`
(A) Not met

(Q) Lab note: confirm whether the reported Alloste ic enhan er (AE) for this compound is below 2%, equality not counting. compound: `Nc1nc2c(s1)Cc1cc(-c3cc4ccccc4o3)ccc1-2`
(A) Not met
